The following molecules are listed with their measured IC50 values.
- System: TGF-β-stimulated SMAD3 phosphorylation in BEAS-2B cells
- experiment: Cellular ALK5 potency assay, inhibition of TGF-β stimulated pSMAD3 formation in BEAS-2B cells
- Assay type: cell-based
- condition-summary: Homo sapiens, inhibition of TGF-β (10 ng/mL) stimulated pSMAD3 formation, 1 hour compound incubation, read-out: BEAS2B pIC50 (converted)

Examples with answers:
                                   molecule                             system_tested         test_result
0  CN1CCC(N(C)c2cnc3ccc(-c4c[nH]nc4-c4cc(Cl)ccc4F)nc3c2)CC1  TGF-β-stimulated SMAD3 phosphorylation in BEAS-2B cells  0.0251 to 0.158 µM
1  CC(C)N1CCN(CCNc2cnc3ccc(-c4nc[nH]c4-c4ccc(F)c(F)c4)cc3c2)CC1  TGF-β-stimulated SMAD3 phosphorylation in BEAS-2B cells  0.0251 to 0.158 µM
2  Fc1ccc(Cl)cc1-c1n[nH]cc1-c1ccc2ncc(-c3cnc4n3CCCN4)cc2n1  TGF-β-stimulated SMAD3 phosphorylation in BEAS-2B cells  0.0251 to 0.158 µM

Okay, now this molecule:
Exercise: # lookup: IC50 of `Fc1ccc(Cl)cc1-c1n[nH]cc1-c1ccc2ncc(-c3cnn(CC4CNC4)c3)cc2n1`
Solution: 0.0251 to 0.158 µM

Recorded values, source patent US11730720B2.
